Reported values of Plant response rating, Barnyardgrass for individual entries
System: barnyardgrass (Echinochloa crus-galli)
Assay: Test A pre-/postemergence plant response
Format: in vivo
Details: Preemergence, 125 g ai/ha; 0 to 100 scale (0 no effect, 100 complete control)
Source text: […] Plants ranged in height from 2 to 10 cm and were in the one- to two-leaf stage for the postemergence treatment. Treated plants and untreated controls were maintained in a greenhouse for approximately 10 days, after which time all treated plants were compared to untreated controls and visually evaluated for injury. […]

- molecule: "CCc1cc(-c2ccc(C(F)(F)F)cc2)nn1-c1c(O)cnn(CC)c1=O [Compound 67]"
  Plant response rating, Barnyardgrass: 100
- molecule: "Cc1cc(-c2ccc(OC(F)(F)F)cc2)nn1-c1c(OC(=O)OC(C)C)cnn(C)c1=O [Compound 13]"
  Plant response rating, Barnyardgrass: 60
- molecule: "Cc1cc(-c2ccc(Cl)cc2)nn1-c1c(OC(=O)c2ccccc2)cnn(C)c1=O [Compound 48]"
  Plant response rating, Barnyardgrass: 100

Where do these numbers come from? They come from patent US20100267561A1.
